For each of the compounds below, state its pest or weed control at 140 g/ha.
# Test system: Key Grass and Sedge Weeds as well as Grass Crops
# assay notes: Post-emergent Test II herbicidal activity (Table 6)
# Type: in vivo
# test context: post-emergence, 336 h, ZEAMX: maize, corn (Zea mays), application rate 140 g ai/ha, read-out: Visual Growth Reduction (%) 14 Days After Application, ZEAMX
# From the text: Post-emergent Test II: Seeds or nutlets of the desired test plant species were planted in Sun Gro Metro-Mix® 360 planting mixture, which typically has a pH of 6.0 to 6.8 and an organic matter content of about 30 percent, in plastic pots with a surface area of 64 square centimeters. When required to ensure good germination and healthy plants, a fungicide treatment and/or other chemical or physical treatment was applied. […]

smiles input: N#Cc1ccc(-c2nc(C(=O)O)c(Cl)c(N)c2Cl)cc1
observable: pest or weed control at 140 g/ha
value reported: 0 to 29%
--
smiles input: COC(=O)c1nc(-c2c(F)cc(I)c(F)c2F)cc(N)c1Cl
observable: pest or weed control at 140 g/ha
value reported: 60 to 74%
--
smiles input: Nc1c(F)c(-c2ccc(OC(F)F)c(F)c2F)nc(C(=O)O)c1Cl
observable: pest or weed control at 140 g/ha
value reported: 0 to 29%
--
smiles input: Nc1cc(-c2ccc(Br)cc2F)nc(C(=O)O)c1Cl
observable: pest or weed control at 140 g/ha
value reported: 75 to 84%
--
smiles input: COC(=O)c1nc(-c2ccc(Br)c(F)c2)c(C)c(N)c1Cl
observable: pest or weed control at 140 g/ha
value reported: 60 to 74%

List the reported pest or weed control at 140 g/ha of each compound below.
1. COC(=O)c1nc(-c2ccc(C(N)=O)cc2)c(F)c(N)c1Cl
2. C=Cc1c(C(=O)O)nc(-c2ccc(I)cc2)c(F)c1N
3. COC(=O)c1nc(-c2cc(F)c(C(F)F)cc2F)nc(N)c1OC
4. Nc1c(Cl)c(C(=O)O)nc(-c2ccc(Br)c(F)c2)c1Cl

Result:
1: 0 to 29%; 2: 75 to 84%; 3: 0 to 29%; 4: 75 to 84%

---

# Test system: Key Broadleaf Weed and Crop Species
# assay notes: Post-emergent Test II herbicidal activity (Table 5)
# Type: in vivo
# test context: post-emergence, 336 h; ABUTH: velvetleaf (Abutilon theophrasti); application rate 70 g ai/ha; 14 days after application; read-out: Visual Growth Reduction (%) 14 Days After Application, ABUTH
For each of the compounds below, state its pest or weed control at 70 g/ha.

smiles input: COc1c(N)nc(-c2ccc(Br)c(F)c2F)nc1C(=O)O
pest or weed control at 70 g/ha: 95 to 100%
//
smiles input: Nc1c(F)c(-c2ccc([N+](=O)[O-])cc2)nc(C(=O)O)c1Cl
pest or weed control at 70 g/ha: 0 to 29%
//
smiles input: COC(=O)c1nc(-c2ccc(Br)cc2)cc(N)c1Cl
pest or weed control at 70 g/ha: 95 to 100%
//
smiles input: COC(=O)c1nc(-c2ccc(C#N)cc2)c(F)c(N)c1Cl
pest or weed control at 70 g/ha: 95 to 100%
//
smiles input: COC(=O)c1nc(-c2ccc(Br)c(F)c2)c(F)c(N)c1Cl
pest or weed control at 70 g/ha: 95 to 100%

List the reported pest or weed control at 70 g/ha of each compound below.
1. COC(=O)c1nc(-c2ccc(C#N)c(F)c2)c(F)c(N)c1Cl
2. COc1c(N)nc(-c2ccc(I)c(F)c2F)nc1C(=O)O
3. COc1c(N)nc(-c2ccc(Br)cc2)nc1C(=O)O

Result:
95 to 100%
85 to 94%
85 to 94%

Q: Recorded pest or weed control at 70 g/ha of `Nc1c(F)c(-c2ccccc2)nc(C(=O)O)c1Cl` , please.
Result: 85 to 94%

From: patent US9113629B2
